assay: Reversal of CGRP-induced dilation on human intracranial arteries; assay type: functional, Artery
pEC50: −log10 of the molar value.
REPORTED_METRIC: pEC50

[P] O=C(N[C@H](Cc1ccc2[nH]ncc2c1)C(=O)N1CCC(N2CCCCC2)CC1)N1CCC(N2Cc3ccccc3NC2=O)CC1
[Q] Cc1cc(C[C@@H](NC(=O)N2CCC(N3Cc4ccccc4NC3=O)CC2)C(=O)N2CCC(N3CCCCC3)CC2)cc2cn[nH]c12
Exercise: Return label of the item with the larger pEC50. Candidates: P , Q . Pick one and reply with its label.
Solution: Q

----------
target: UniProt P08684; assay: Inhibition of CYP3A4 (unknown origin) using 7-benzyloxy-4-trifluoromethylcoumarin as substrate; type: ADME
pIC50: −log10 of the molar value.
REPORTED_METRIC: pIC50

# annotated cases, reported pIC50 shown
molecule=Cc1cc(C[C@@H](NC(=O)N2CCC(N3Cc4ccccc4NC3=O)CC2)C(=O)N2CCC(N3CCCCC3)CC2)c(Cl)c2cn[nH]c12 reported_metric=pIC50 endpoint_value=5.46
molecule=O=C(N[C@H](Cc1cc(I)c2[nH]c(=O)oc2c1)C(=O)N1CCC(N2CCCCC2)CC1)N1CCC(N2Cc3ccccc3NC2=O)CC1 reported_metric=pIC50 endpoint_value=4.49

[I] CCc1cc(CC(NC(=O)N2CCC(N3Cc4ccccc4NC3=O)CC2)C(=O)N2CCC(N3CCCCC3)CC2)cc2cn[nH]c12 (racemic)
[II] O=C(NC(Cc1cc(Cl)c2[nH]ncc2c1)C(=O)N1CCC(N2CCCCC2)CC1)N1CCC(N2Cc3ccccc3NC2=O)CC1 (racemic)
Exercise: Lab note: check whether I or II has the lower measured pIC50. Pick one and reply with its label.
Solution: I
(I: 4.60, II: 4.89)

----------
assay: Plasma concentration in marmoset at 0.03 g/kg, sc after 60 mins; assay type: ADME, organism-based, Callithrix jacchus; settings: 30 mg/kg
REPORTED_METRIC: concentration at 1 h (nM)
Numbers only; they are read as nM.

Exercise: Can you look up the measured concentration at 1 h of Cc1cc(CC(NC(=O)N2CCC(N3Cc4ccccc4NC3=O)CC2)C(=O)N2CCC(N3CCCCC3)CC2)cc2cn[nH]c12 (racemic) for me?
Solution: 13

----------
target: Cytochrome P450 3A4 (Homo sapiens); assay: Inhibition of CYP3A4 (unknown origin) using 7-benzyloxy-resorufin as substrate; assay type: ADME
Sequence (P08684 whole entry): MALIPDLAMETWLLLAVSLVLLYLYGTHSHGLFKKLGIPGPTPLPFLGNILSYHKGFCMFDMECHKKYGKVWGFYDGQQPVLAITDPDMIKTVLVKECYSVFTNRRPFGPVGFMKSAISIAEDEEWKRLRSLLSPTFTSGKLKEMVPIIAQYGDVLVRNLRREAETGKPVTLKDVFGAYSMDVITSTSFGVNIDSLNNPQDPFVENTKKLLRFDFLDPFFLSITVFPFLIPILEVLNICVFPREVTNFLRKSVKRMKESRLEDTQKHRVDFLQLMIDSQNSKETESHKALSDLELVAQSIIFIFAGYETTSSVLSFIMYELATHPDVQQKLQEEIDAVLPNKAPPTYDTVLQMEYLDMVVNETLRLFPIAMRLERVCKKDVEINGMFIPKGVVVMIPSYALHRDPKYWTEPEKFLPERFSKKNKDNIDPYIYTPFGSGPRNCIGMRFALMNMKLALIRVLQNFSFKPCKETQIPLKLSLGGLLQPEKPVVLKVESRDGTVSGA
pIC50: −log10 of the molar value.
REPORTED_METRIC: pIC50

# annotated cases, reported pIC50 shown
compound="CC(C)c1cc(CC(NC(=O)N2CCC(N3Cc4ccccc4NC3=O)CC2)C(=O)N2CCC(N3CCCCC3)CC2)cc2cn[nH]c12 (racemic)" reported_metric=pIC50 endpoint_value=6.43
compound=Cc1cc(C[C@@H](NC(=O)N2CCC(N3Cc4ccccc4NC3=O)CC2)C(=O)N2CCC(N3CCCCC3)CC2)cc2[nH]nnc12 reported_metric=pIC50 endpoint_value=5.14
compound="CCc1cc(CC(NC(=O)N2CCC(N3Cc4ccccc4NC3=O)CC2)C(=O)N2CCC(N3CCCCC3)CC2)cc2c(C)n[nH]c12 (racemic)" reported_metric=pIC50 endpoint_value=5.16
compound=O=C(N[C@H](Cc1cc2oc(=O)[nH]c2cc1Cl)C(=O)N1CCC(N2CCCCC2)CC1)N1CCC(N2Cc3ccccc3NC2=O)CC1 reported_metric=pIC50 endpoint_value=5.30
compound=O=C(N[C@H](Cc1cc(Br)c2[nH]c(=O)oc2c1)C(=O)N1CCC(N2CCCCC2)CC1)N1CCC(N2Cc3ccccc3NC2=O)CC1 reported_metric=pIC50 endpoint_value=5.14

[a] Cc1cc(C[C@@H](NC(=O)N2CCC(N3Cc4ccccc4NC3=O)CC2)C(=O)N2CCC(N3CCCCC3)CC2)c(Cl)c2cn[nH]c12
[b] O=C(N[C@H](Cc1cc(I)c2[nH]c(=O)oc2c1)C(=O)N1CCC(N2CCCCC2)CC1)N1CCC(N2Cc3ccccc3NC2=O)CC1
[c] CCc1cc(CC(NC(=O)N2CCC(N3Cc4ccccc4NC3=O)CC2)C(=O)N2CCC(N3CCCCC3)CC2)cc2cn[nH]c12 (racemic)
[d] O=C(N[C@H](Cc1cc(Cl)c2[nH]c(=O)oc2c1)C(=O)N1CCC(N2CCCCC2)CC1)N1CCC(N2Cc3ccccc3NC2=O)CC1
[e] O=C(NC(Cc1cc(Cl)c2[nH]ncc2c1)C(=O)N1CCC(N2CCCCC2)CC1)N1CCC(N2Cc3ccccc3NC2=O)CC1 (racemic)
Exercise: I would appreciate it if you could sort these 5 compounds by pIC50, starting from the smallest number. Reply: labels, ordered per the request.
Solution: d, b, a, c, e
(d: 4.77, b: 5.26, a: 5.80, c: 6.35, e: 6.74)
